# System Under Test: human Dopamine D2 receptor (Homo sapiens, UniProt P14416)
# Construct: purchased BioSignal, Inc. (Montreal, Canada)
# Sequence (P14416 whole entry): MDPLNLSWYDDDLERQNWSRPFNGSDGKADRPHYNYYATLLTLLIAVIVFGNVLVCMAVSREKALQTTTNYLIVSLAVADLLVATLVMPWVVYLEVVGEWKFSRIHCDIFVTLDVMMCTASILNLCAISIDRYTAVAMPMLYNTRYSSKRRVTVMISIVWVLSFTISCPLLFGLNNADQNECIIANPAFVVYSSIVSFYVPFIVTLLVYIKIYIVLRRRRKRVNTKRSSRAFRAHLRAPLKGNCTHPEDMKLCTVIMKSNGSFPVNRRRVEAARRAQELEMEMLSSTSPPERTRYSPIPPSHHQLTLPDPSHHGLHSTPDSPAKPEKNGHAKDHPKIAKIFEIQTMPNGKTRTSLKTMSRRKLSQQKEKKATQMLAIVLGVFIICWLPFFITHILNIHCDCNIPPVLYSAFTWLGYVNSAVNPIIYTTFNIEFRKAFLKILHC
# Assay Notes: Binding affinity at the human dopamine D2 receptor
# Stated Conditions: Table 3c; read-out: hD2 Ki
Record form. Attribute: Ki. Fill in for each entry.

The molecule identified as CCC(=O)Nc1cccc(C2CCN(CCCNC(=O)C3=C(COC)NC(=O)N[C@@H]3c3ccc(F)c(F)c3)CC2)c1 registered its Ki at > 50 µM

The molecule identified as CC(C)C(=O)Nc1cccc(C2CCN(CCCCN3C(=O)c4ccccc4C3=O)CC2)c1 registered its Ki at > 50 µM

The molecule identified as CC(C)C(=O)Nc1cccc(C2CCN(CCCCCN3C(=O)c4ccccc4C3=O)CC2)c1 registered its Ki at > 50 µM
